experimentalTarget: EphB1 (receptor of Table 1)
Sequence (Q8CBF3 18-540): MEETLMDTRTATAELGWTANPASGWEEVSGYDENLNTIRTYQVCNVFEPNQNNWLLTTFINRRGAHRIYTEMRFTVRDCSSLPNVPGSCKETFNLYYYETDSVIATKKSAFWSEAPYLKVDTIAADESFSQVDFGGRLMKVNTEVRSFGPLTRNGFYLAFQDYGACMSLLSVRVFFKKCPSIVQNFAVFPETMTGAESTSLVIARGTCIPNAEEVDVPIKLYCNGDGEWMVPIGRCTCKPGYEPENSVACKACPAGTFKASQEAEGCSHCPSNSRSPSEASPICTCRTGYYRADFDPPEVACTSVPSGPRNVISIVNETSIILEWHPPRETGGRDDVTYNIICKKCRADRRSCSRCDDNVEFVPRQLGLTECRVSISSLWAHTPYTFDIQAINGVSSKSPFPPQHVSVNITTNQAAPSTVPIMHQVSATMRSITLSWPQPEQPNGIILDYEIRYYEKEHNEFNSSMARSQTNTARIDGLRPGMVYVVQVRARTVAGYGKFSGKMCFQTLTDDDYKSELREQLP
assayOverview: inhibition of ephrin-B2 AP binding to EphB1 (panning receptor); biotinylated and non-biotinylated peptide gave the same result
recordedEndpoint: IC50

Record request: IC50 value, item EWLSPNLAPSVR (Panned on EphB1; Footnote e: biotinylated and non-biotinylated peptides gave the same IC50) [EWLSPNLAPSVR peptide (SEQ ID NO:1)]
~10 µM
